Provide the reported combination Emax of each item.
System: NCI-H2085 (Non-Small Cell Lung Carcinoma)
Test: combination Emax (second highest fraction inhibited in the dose matrix, 72 h); higher = more inhibition; extreme values may be limits of the assay
The answer should be written as a number, with no unit following it.

Q: Which combination Emax value is on record for CN(CCO)CC[C@H](CSc1ccccc1)Nc1ccc(S(=O)(=O)NC(=O)c2ccc(N3CCC([C@@H](O)c4ccccc4-c4ccc(Cl)cc4)CC3)cc2)cc1S(=O)(=O)C(F)(F)F [AZD4320] + C[C@@H](Nc1cc(F)cc(F)c1)c1cc(C(=O)N(C)C)cc2c(=O)cc(N3CCOCC3)oc12 [AZD8186] (first compound max 1 µM, 7x7, partner max 3 µM) ?
Ans: 0.584

Q: Which combination Emax value is on record for CS(=O)(=O)CCNCc1ccc(-c2ccc3ncnc(Nc4ccc(OCc5cccc(F)c5)c(Cl)c4)c3c2)o1 [Lapatinib] + Cn1cnc2c(F)c(Nc3ccc(Br)cc3Cl)c(C(=O)NOCCO)cc21 [Selumetinib] (first compound max 10 µM, 7x7, partner max 10 µM) ?
Ans: 0.341

Q: Which combination Emax value is on record for CN(CCO)CC[C@H](CSc1ccccc1)Nc1ccc(S(=O)(=O)NC(=O)c2ccc(N3CCC([C@@H](O)c4ccccc4-c4ccc(Cl)cc4)CC3)cc2)cc1S(=O)(=O)C(F)(F)F [AZD4320] + Cc1cc2ncnn2cc1Nc1ncc2c(n1)n(C1CCOCC1)c(=O)n2C [AZD7648] (first compound max 1 µM, 7x7, partner max 10 µM) ?
Ans: 0.177

Q: Which combination Emax value is on record for CN(CCO)CC[C@H](CSc1ccccc1)Nc1ccc(S(=O)(=O)NC(=O)c2ccc(N3CCC([C@@H](O)c4ccccc4-c4ccc(Cl)cc4)CC3)cc2)cc1S(=O)(=O)C(F)(F)F [AZD4320] + Cn1cnc2c(F)c(Nc3ccc(Br)cc3Cl)c(C(=O)NOCCO)cc21 [Selumetinib] (first compound max 1 µM, 7x7, partner max 3 µM) ?
Ans: 0.367

Q: Which combination Emax value is on record for CN(C)CCCOc1ccc(-c2ccc3ncc4c(c3c2)n(C2CCOCC2)c(=O)n4C)cn1 [AZD0156] + C[C@@H]1COCCN1C2=NC(=NC(=C2)C3(CC3)[S@](=N)(=O)C)C4=C5C=CNC5=NC=C4 [AZD6738] (first compound max 1 µM, 7x7, partner max 10 µM) ?
Ans: 0.824

Q: Which combination Emax value is on record for Cc1cc2ncnn2cc1Nc1ncc2c(n1)n(C1CCOCC1)c(=O)n2C [AZD7648] + C=CCn1c(=O)c2cnc(Nc3ccc(N4CCN(C)CC4)cc3)nc2n1-c1cccc(C(C)(C)O)n1 [AZD1775] (first compound max 10 µM, partner max 1 µM) ?
Ans: 0.512

Q: Which combination Emax value is on record for C[C@@H](Nc1cc(F)cc(F)c1)c1cc(C(=O)N(C)C)cc2c(=O)cc(N3CCOCC3)oc12 [AZD8186] + CC(=O)c1c(C)c2cnc(Nc3ccc(N4CCNCC4)cn3)nc2n(C2CCCC2)c1=O [Palbociclib] (first compound max 10 µM, 7x7, partner max 10 µM) ?
Ans: 0.61

Q: Which combination Emax value is on record for COc1nnc2ccc(N3CCC(c4ccc(OCCN5CCN(C)C(=O)[C@H]5C)cc4)CC3)nn12 [AZD5153] + Cc1c2c(nn1C)CSCc1cc(n(C)n1)CSc1cc(c3ccccc3c1)OCCCc1c(C(=O)O)n(C)c3c-2c(Cl)ccc13 [AZD5991] (first compound max 1 µM, 7x7, partner max 1 µM) ?
Ans: 0.64

Q: Which combination Emax value is on record for COc1nnc2ccc(N3CCC(c4ccc(OCCN5CCN(C)C(=O)[C@H]5C)cc4)CC3)nn12 [AZD5153] + CCN(CCO)CCCOc1ccc2c(Nc3cc(CC(=O)Nc4cccc(F)c4)[nH]n3)ncnc2c1 [AZD2811] (first compound max 1 µM, 7x7, partner max 1 µM) ?
Ans: 0.484

Q: Which combination Emax value is on record for CC1(C)CCC(CN2CCN(c3ccc(C(=O)NS(=O)(=O)c4ccc(NCC5CCOCC5)c([N+](=O)[O-])c4)c(Oc4cnc5[nH]ccc5c4)c3)CC2)=C(c2ccc(Cl)cc2)C1 [Venetoclax] + C[C@@H]1COCCN1C2=NC(=NC(=C2)C3(CC3)[S@](=N)(=O)C)C4=C5C=CNC5=NC=C4 [AZD6738] (first compound max 1 µM, 7x7, partner max 10 µM) ?
Ans: 0.534

Q: Which combination Emax value is on record for COc1nnc2ccc(N3CCC(c4ccc(OCCN5CCN(C)C(=O)[C@H]5C)cc4)CC3)nn12 [AZD5153] + C=CCn1c(=O)c2cnc(Nc3ccc(N4CCN(C)CC4)cc3)nc2n1-c1cccc(C(C)(C)O)n1 [AZD1775] (first compound max 1 µM, partner max 1 µM) ?
Ans: 0.505

Q: Which combination Emax value is on record for NC1(C(=O)N[C@@H](CCO)c2ccc(Cl)cc2)CCN(c2ncnc3[nH]ccc23)CC1 [Capivasertib] + Cn1cnc2c(F)c(Nc3ccc(Br)cc3Cl)c(C(=O)NOCCO)cc21 [Selumetinib] (first compound max 10 µM, 7x7, partner max 10 µM) ?
Ans: 0.427

Q: Which combination Emax value is on record for COc1cccc(OCCCN)c1-c1cc(Nc2cnc(C#N)cn2)n[nH]1 [Prexasertib] + Cc1cc2ncnn2cc1Nc1ncc2c(n1)n(C1CCOCC1)c(=O)n2C [AZD7648] (first compound max 1 µM, 7x7, partner max 10 µM) ?
Ans: 0.825

Source: the supplement of paper PMC11061612
